experiment: yeast display, Sf9 membrane polyspecificity reagent, FACS + sequencing; frameworks hold sequencing errors

Query Sequence	polyreactivity (PSR sort gate)
QVQLVESGGGLVQAGGSLRLSCAASGSILTVYAMGWYRQAPGKERELVARIRSGDRTYYADSVKGRFTISRDNAKNTVYLQMNSLKPEDTAVYYCAAGSQRRYYHTNWDSFNYWGQGSQVTVSS	low polyreactivity
QVQLVESGGGLVQAGGSLRLSCAASGRIFGYNAMGWYRQAPGKERELVAAITNGGSTNYADSVKGRFTISRDNAKNTVYLQMNSLKPEDTAVYYCVAYVGSTYSAPEYYWGQGTQVTVSS	low polyreactivity
QVQLVESGGGLVQAGGSLRLSCAASGRTFPYYTMGWYRQAPGKERELVAAITSGGSTYYADSVKGRFTISRDNAKNTVYLQMNSLKPEDTAVYYCNKDAYYWGQGTQVTVSS	low polyreactivity
QVQLVESGGGLVQARGSLRLSCAASVITFRHNTMGWYRQAPGKERELVSTNYADSVKGRFTISRDNAKNTVYLQMNSLKQEDTAVYYCNADGTFEYDYWGQGTQVTVSS	low polyreactivity
QVQLVESGGGLVQAGGSLRLSCAASGRTFGGNAMGWYRQAPGKERELVATIRSSSSTNYADSVKGRFTISRDNAKNTVYVQMNSLKQEDTAVYYCNAARPDALNTYGYGFDYWGQGTQVTVSS	low polyreactivity
QVQLVESGGGLVQAGGSLRLSCAASGSIFRANAMGWYRQAPGKEREMVAAISYSGGSTYYADSVKGRFSISRDNAKNTVYLLMNSLKPEDTAVYYCAAEFLYASVYYSYWGQGTQVTVSS	high polyreactivity
QDQLVESGGGLVQAGGSLRLSCAASGFTIGYNVMGWYRQAPGKERELVATISWNGARTYYADSVKGRFTISRDNAKNTVYLQMNSLKPEETAVYYCAARRYYRGEYDYWGQGTQVTVSS	low polyreactivity
QVQLVESGGGLVQAGGSLRLSCAASGRIFYYYAMGWYRQAPGKERELVADITSGGSTNYADSVKGRFTISRDNAKNTVYLQMNSLKPEDTAVYYCAAEYGDVYVWTYDYWGQGTQVTVSS	high polyreactivity
QVQLVESGGGLVQAGGSLSLSCAASGFIFPGNAKGWYRQAPGKERELVATISSGGSTKYADSVKGRFTISRDNANNTVYLQMNSLKPEDTAVYYCAARVYLGVFDYYYWGQGTQVTVSS	low polyreactivity
QVQLVESGGGLVQAGGSLRLSCAASGRIFAYYAMGWYRQPPGKERELVAAISRSGVSTYYADSVKGRFTISRDNAKNTVYLQMNSLKPEDTAVYYCAKTLSPEGVPYDYWGQGTQVTVSS	low polyreactivity
QVQLVESGGGLVQAGGRLRLSCAASGSTFGTNDMGWYRQAPGKEREFVASIDWSGDSTNYADSVKGRFTISRDNAKNTVYLQMNSLKPEDTADYYCAARVFPQIYYTSYDYWGQGTQVTVSS	high polyreactivity

###

test: yeast display, Sf9 membrane polyspecificity reagent, FACS + sequencing; frameworks hold sequencing errors

Query Sequence	polyreactivity (PSR sort gate)
QVQLVESVGGLDQAGGSLRLSCAASVFTFNIYVMGWYRQAPGKERELVAAISTSTGSTYYADSVKGRFTISRDNAKNTVYLQMNSLKPQDTAVYYCNADDYDLRFDYWGQGTQVTVSS	low polyreactivity
QVQLVESGGGLVQAGGSLRLAVLPPDLPSTLNDMGWYRQAPGKERELVAAITRGGSTNYADSVKGRFTISRDNAKNTVYLQMNSLKPEDTAVYYCAAPYAGWRDGGDYWGQGTQVTVSS	low polyreactivity
QVQLVESGGGLVQAGGSLRLSCAASGRTFSYNAMGWYRQAPGKERELVAAITSSGGGTSYADSVKGRFTISRDNAKNTVYLQMNSLKPEDTAVYYCNRVLPHPDGYGVGARGYWGQGTQVTVSS	high polyreactivity
QVQLVESGGGLVQAGGSLRLSCAAYGIIFTDYAMGWYRQAPGKERELVAANSSGGGSTYYADSVKGRFTISRDNAKNTVYLQMNSLKPEDTAVYYFAAQSSGSYGFDHWGQGTQVTVSS	high polyreactivity
QVQLVESGGGLVQAGGSLRLSCAACGRTSSIYAMGWYRQAPGKERELVATITGGAVSTSYADSVKGRFTISRDNAKYTVYLQMNSLKPEDSAVYYCAADHWRYRSRPVNYWRQGTQVTVSS	high polyreactivity
QVQLVESGGGLVQAGGSLRLSCAASGITFYSNAMGWYRQAPGKERELVARISSSGGSTYYADSVKGRFTISRDNAKNTVYLQMNSLKPEDTAVYYCAARRLWVRGYNYWGQGTQVTVSS	high polyreactivity
QVQLVESGGGLVQAGGSLRLSCAASGRIFKLYAMGLYRQAPGKERELVAASSKSGGSTYYADSVKGRFKISRDNAKNTVYLQMNSLKPEDSAVYYCNADPVRSGLDYWGQGTQVTVSS	high polyreactivity
QVQLVESGGGLVQAGGSLRLSCAAAGRTIRRIAMGWYRQAPGKERELVAAISKSGGRTYYADSVKGRFTISRDKAKKTVYLQMNSMKPEDTAVYYCGAYDTVYNSGDYDYWGQGTQVTVSS	high polyreactivity
QVQLVESGGGLVQAGGSLRLSCAASGSTFTSYAMGWYRQAPGKESEFVAAISWDGDNTYADSVKGRFTISRDNAKNTVYLQMNSLKPEDTAVYYCAASHQNGNFGWGYDSWGQGTQVTVSS	high polyreactivity
QVQLVESGGGLFQAGGSLRLSCAASGFIFAWYAMGWSRQAPGKERELVATISSSGARTYYADSVKGRFTISRDNAKNTVYLQLNRLKPEDTAVYYCASVYSTLGVGYYYWGQGTQVTVSS	high polyreactivity
QVQLVESGGGLVQAGGSLRLSCAASGRIFKTYAMGWYRQAPGKERELVAAITASGGRTYYADSVKGRFTISRDNAKNTVYLQMNSLTPEDSAVYYCAAPLLRDLRSPYSYNYWGQGTQVTVSS	low polyreactivity
QVQLVESGGGLVQAGCSLRLSCAASGRIFWVNAMGWYRQAPGKERELVAVISSGGSTHYADSVKGRFTISRDNAKYTVSLQMNSLKPEDTAGYYCAADRYYVGYYYWGQGTQVTVSS	low polyreactivity
QVQVVESGGGLVQTGGSLRLSCAASGSTFRRYDMGWYRPAPGKEWELVAAISVSGGNTYYADSVKGRFTISRDNAKNTVYLQMNSLKPEDTAVYYCATSRWVDNKYTLRSRYYYWGQGTQVTVSS	high polyreactivity
QVQLVESGGGLVQAGGSLRLSCADSGSIFDFNTMGWYRQAPGKERELVAAISQRTGRTYYADSVKGRFTISRDNANNTVYLQMNSLKPEDTADYYCAVVWYDKGRQTRYNSWGQGTQVTVSS	high polyreactivity
QGQLVESGGGLVQAGGSLRLSCAASGSIFRAYAMGWNRQAPGKERELVAAISWGGGSTSYADSVKGRFTISRDNAMNTVYLQMNSLKPEDTAVYYCAAELYLSRLRYWYDYWGHGTQVTVSS	high polyreactivity
QVQLVESGGGLVQAGGSLRLSCAASGRTFYIYVMGWYRQAPGKERELVAGITWRGGITYYADSVKGRFTISRDNAKNNVYLQMNSLKPEDTAVYYCAVDDLGSEYDYWGQGTQVTVSS	low polyreactivity
QVQLVESGGGIVQAGGSLRLSCAASGRIFIWYDMGWYRQAPGKERELVAAITQSDDITYYADSVKGRFTISLDNAKNTVYLQMNSLKPEDTAVYYCAVDKPYPYRIIIWYEYDYWGQGTQVSVSS	low polyreactivity
QVQIVESGGGLVQAGGSLRLSCAASGRTLALYTMGWYRQAPGKERELVAAINWSGTSTYYADSVKGRNTISRDNAKNTVYLQINILKPEDTAVYYCNADGSAYIEDGYDYWGQGTQVTVSS	low polyreactivity
QVQLVESGGGLVQAGGSLRLSCAASGSSFDDKAMGWYRQAPGKERELVASITYRGGSTYYADSVKGRFTISRDHAKNTVNLHIKSLKPEVTAVYYCDKGHYFKYDYWGQGTQVTVSS	low polyreactivity
QVQLVESGGGLVPARGSLRLSCAASGRIFRYYAMGWYRQAPGKERELVAAISGNGGRTSYADSVKGRFTISRDNAKITVSLQMTSLKPEDTAVYYCNAASVNGCRDFDYWGQGTQVTVSS	high polyreactivity
QVQLVESGGGLVQAGGSLRLSCAASGFILAYYAMGWSRQAPGKERELVAAISIGSSTDYADSVKGRFTISRDNAKNTVYLQINSVKPEDTAVYDFAARDYYYEYDYWGQGTQVTVSS	low polyreactivity

###

experiment: yeast display, Sf9 membrane polyspecificity reagent, FACS + sequencing; frameworks hold sequencing errors
Property Label: polyreactivity (PSR sort gate)

Query Sequence	Value Observed
QVQLVESGGGLVQAGGSLRVSCADSGGIFALNDMGWYRQAPGKERELVAAINGAGTYYADSVKGRFTISRDNAKNTVYLQRNSLKPEDTAVYYCARGSLHWEYARTWTRVEYDYWGQGTQVTVSS	low polyreactivity
QVQLVESGGGLVQAGGSLRISCAASGRTFHYNVMGWYTQAPGKERELVAAITNTGGSTYYADSVKGRFTISRDNAKNTVYLQMNSLKPEDTAVYYCAAVIWGRRYGAYPYEYWGQGTQVTVSS	low polyreactivity
QVQLVESGGGLVQAGGSLRLSCAASGSIFPYYTMGWYRQAPGKERELVAAISGSGTSTYYADSVKGRFTISRDNAKNTVYLQMISLKPEDTAVYYCAKRFRYGYVNYYYWGQGTQVTVSS	low polyreactivity
